Test: In Vitro Microsome Stability Assay (monkey)
Type: in vitro ADME
Conditions: monkey, 30 min, NADPH
Property: Liver Microsome Stability-% Left after 30 min w/ NADPH (%) Monkey
Give your result in % as a bare value.

Some entries whose results are on file:
                                 mol_smiles  reading_unit  reported_value
0  C[C@H]1CN(S(=O)(=O)c2ccc(N(C)C)cc2)CCCN(CC2CCCCC2)CCCN(S(=O)(=O)N2CCN(c3cccc(F)c3)CC2)C1             %            46.1
1  C=C1CN(S(=O)(=O)c2ccc(N(C)C)cc2)CCCN(CC2CCCCC2)CCCN(S(=O)(=O)N2CCc3ccccc3C2)C1             %            0.79
2  C=C1CN(S(=O)(=O)c2ccc(N(C)C)cc2)CCCN(CC2CCCCC2)CCCN(S(=O)(=O)N2CCC(c3ncccn3)CC2)C1             %            0.03
3  C=C1CN(S(=O)(=O)c2ccc(N(C)C)cc2)CCCN(CC2CCCCC2)CCCN(S(=O)(=O)N2CCC(C3CCCC3)CC2)C1             %              48

With those in mind, consider the next compound.
Q: Which Liver Microsome Stability-% Left after 30 min w/ NADPH (%) Monkey is listed for `C=C1CN(S(=O)(=O)c2ccc(N(C)C)cc2)CCCN(CC2CCCCC2)CCCN(S(=O)(=O)N2CCc3cc(-c4ccccc4)ccc3C2)C1` ?
A: 84.4

* * *

Assay: In Vitro Microsome Stability Assay (human)
Assay type: in vitro ADME
Details: human liver microsomes, 30 min w/ NADPH
Decide using Liver Microsome Stability-% Left after 30 min w/ NADPH (%) Human: a value greater than or equal to 10% is true (1), a smaller one is false (0).

# count of solved cases: 6
In [3]: df
Out[3]:
                                   compound  classification
0  C[C@@H]1CCN(S(=O)(=O)N2CCc3cc(Cl)ccc3C2)CCCN(CC2CCCCC2)CCCN1S(=O)(=O)c1ccc(N(C)C)cc1       false (0)
1  C[C@H]1CN(S(=O)(=O)c2ccc(N(C)C)cc2)CCCN(CC2CCCCC2)CCCN(S(=O)(=O)N(C)Cc2ccccc2)C1       false (0)
2  COc1cc(F)cc(N2CCN(S(=O)(=O)N3CCCN(CC4CCCCC4)CCCN(S(=O)(=O)c4ccc(N(C)C)cc4)C[C@H](C)C3)C[C@@H]2C)c1        true (1)
3  Cc1cc(F)ccc1N1CCN(S(=O)(=O)N2CCCN(CC3CCCCC3)CCCN(S(=O)(=O)c3ccc(N(C)C)cc3)C[C@H](C)C2)C(C)C1 (stereo in doubt)        true (1)
4  C[C@H]1CN(S(=O)(=O)c2ccc(C(=O)N(C)C)cc2)CCCN(CC2CCCCC2)CCCN(S(=O)(=O)N2CCc3cc(Cl)ccc3C2)C1       false (0)
5  COc1cc(F)cc(N2[C@H](C)CN(S(=O)(=O)N3CCCN(CC4CCCCC4)CCCN(S(=O)(=O)c4ccc(N(C)C)cc4)C[C@H](C)C3)C[C@H]2C)c1        true (1)

Q: Check if Liver Microsome Stability-% Left after 30 min w/ NADPH (%) Human >= 10% (inclusive). Item: `CN(C)c1ccc(S(=O)(=O)NCCCN(CCCNS(=O)(=O)N2CCC(c3ccccc3)CC2)CC2CCCCC2)cc1`
A: false (0)

Q: Same question, `Cc1cccc2c1CCN(S(=O)(=O)N1CCCN(CC3CCCCC3)CCCN(S(=O)(=O)c3ccc(N(C)C)cc3)C[C@H](C)C1)C2` this time
A: true (1)

Q: Consider next the compound C[C@H]1CN(S(=O)(=O)c2ccc(N(C)C)cc2)CCCN(CC2CCC(F)CC2)CCCN(S(=O)(=O)N2CCc3cc(Cl)ccc3C2)C1 (stereo partly shown) in the same way.
A: true (1)

Q: What do you get for `C[C@H]1CN(S(=O)(=O)c2ccc(N(C)C)cc2)CCCN(CC2CCCCC2)CCCN(S(=O)(=O)N2CCN(c3ccc(F)cc3Cl)CC2)C1` ?
A: true (1)

* * *

# pIC50 per entry
Tested on: full length IL-2 (amino acids 1-153) fused to Gaussia Luciferase
Assay: Dox Induced IL2-FL-Gluc Assay
Format: cell-based
Settings: 24 hr, 293FRT/TO; read-out: 24 hr Dox Inducible IL2FLGluc 293FRT/TO: Mean IC50
Conceptually, pIC50 converts a concentration in mol/L into minus its log10.

>>> df
                                 mol_smiles                         target_under_test  reported_value
0  C[C@H]1CN(S(=O)(=O)c2ccc(N(C)C)cc2)CCCN(CC2CCCCC2)CCCN(S(=O)(=O)N2CCN(c3cccc(F)c3)CC2)C1  full length IL-2 (amino acids 1-153) fused to Gaussia Luciferase            6.41
1  C=C1CN(S(=O)(=O)c2ccc(N(C)C)cc2)CCCN(CC2CCCCC2)CCCN(S(=O)(=O)N2Cc3ccc(Cl)cc3C2)C1  full length IL-2 (amino acids 1-153) fused to Gaussia Luciferase            6.73
2  Cc1ccc(S(=O)(=O)N2CCCN(CC3CCCCC3)CCCN(S(=O)(=O)c3ccc(N(C)C)cc3)CCC2)cc1  full length IL-2 (amino acids 1-153) fused to Gaussia Luciferase            5.93

Q: Which measured pIC50 value corresponds to `Cc1cccc(N2CCN(S(=O)(=O)N3CCCN(CC4CCCCC4)CCCN(S(=O)(=O)c4ccc(N(C)C)cc4)C[C@H](C)C3)CC2)c1` ?
A: 6.45

Q: Repeat with `CC1CCN(S(=O)(=O)N2CCCN(CC3CCCCC3)CCCN(S(=O)(=O)c3ccc(N(C)C)cc3)CC3(CC3)C2)CC1`
A: 6.43

Q: For `C[C@H]1CN(S(=O)(=O)c2ccc(N(C)C)cc2)CCCN(CC2CCCCC2)CCCN(S(=O)(=O)N2CCC(c3ccccc3)CC2)C1` then?
A: 6.44

Q: Similarly, `C[C@H]1CN(S(=O)(=O)c2ccc(N(C)C)cc2)CCCN(CC2CCCCC2)CCCN(S(=O)(=O)N2CC[C@@H](c3ccccc3)C2)C1` ?
A: 6.31

* * *

Test: In Vitro Microsome Stability Assay (monkey)
Type: in vitro ADME
Conditions: monkey, 30 min, NADPH
Where a name gives a salt, the structure may show the parent alone.
// reported Liver Microsome Stability-% Left after 30 min w/ NADPH (%) Monkey for each item listed
API: value field is a number in %; no unit string.

Some compounds with known Liver Microsome Stability-% Left after 30 min w/ NADPH (%) Monkey results, for comparison:
>>> df
                                   compound  reported_value
0  CN(C)c1ccc(S(=O)(=O)N2CCCN(CC3CCCCC3)CCCN(S(=O)(=O)N3CCC(C)(C)CC3)CC3(CC3)C2)cc1 [A26]            0.13
1  C=C1CN(S(=O)(=O)c2ccc(N(C)C)cc2)CCCN(CC2CCCCC2)CCCN(S(=O)(=O)N2CCc3cc(OC)ccc3C2)C1 [A71]            6.75
2  CC1CCCN(S(=O)(=O)N2CCCN(CC3CCCCC3)CCCN(S(=O)(=O)c3ccc(N(C)C)cc3)CC3(CC3)C2)C1 (stereo not drawn) [A21]            0.11
3  Cc1ccc(S(=O)(=O)N2CCCN(CC3CCCCC3)CCCN(S(=O)(=O)c3ccc(N(C)C)cc3)CC3(CC3)C2)cc1 [A11, hydrochloride]            0.08
4  C=C1CN(S(=O)(=O)c2ccc(N(C)C)cc2)CCCN(CC2CCCCC2)CCCN(S(=O)(=O)N2CCCCC2)C1 [A13]             0.1

Q: I'd like to know its Liver Microsome Stability-% Left after 30 min w/ NADPH (%) Monkey. The compound in question is COc1ccc(S(=O)(=O)N2CCCN(CC3CCCCC3)CCCN(S(=O)(=O)N3CCCCC3)CC3(CC3)C2)cc1 [A31]
A: 0.03

Q: Now this one: C=C1CN(S(=O)(=O)c2ccc(N(C)C)cc2)CCCN(CC2CCCCC2)CCCN(S(=O)(=O)N2CCN(c3ccccc3)[C@@H](C)C2)C1 [A47]
A: 1.68

Q: Same read-out for CN(C)c1ccc(S(=O)(=O)N2CCCN(CC3CCCCC3)CCCN(S(=O)(=O)N3CCCCCC3)CC3(CC3)C2)cc1 [A25] ?
A: 0.2

Q: Param item: C=C1CN(S(=O)(=O)c2ccc(N(C)C)cc2)CCCN(CC2CCCCC2)CCCN(S(=O)(=O)N(C)C)C1 [A16]
A: 41.1
